All values here come from ChEMBL document CHEMBL1126278.

# Tested on: HEL
# test details: Inhibitory effect on replication of DNA virus VZV (Oka) on HEL cell line.
# Assay type: functional, cell-based
# assay context: Homo sapiens
recorded metric: IC50 (µg/mL)
Numeric only. Scale: µg/mL

Please review the following examples before continuing.
C[C@@H](O)C1=C[C@@H](n2cnc3c(N)ncnc32)[C@H](O)[C@@H]1O | 21
Nc1ncnc2c1ncn2[C@@H]1C=C(CO)[C@@H](O)[C@H]1O | 8
COCC1=C[C@@H](n2cnc3c(N)ncnc32)[C@H](O)[C@@H]1O | 200

The value of IC50 measured for the compound Nc1ncnc2c1ncn2[C@@H]1C=C(CF)[C@@H](O)[C@H]1O turned out to be 70

====

The following compounds are shown together with reported IC50 values.
# Test system: HEL
# test details: Inhibitory effect on replication of DNA virus Cell growth on HEL cell line.
# Type: functional, cell-based
# assay context: Homo sapiens

COCC1=C[C@@H](n2cnc3c(N)ncnc32)[C@H](O)[C@@H]1O | 200 mg/L
Nc1ncnc2c1ncn2[C@@H]1C=C(CO)[C@@H](O)[C@H]1O [NEOPLANOCIN A] | 16 mg/L
CSCC1=C[C@@H](n2cnc3c(N)ncnc32)[C@H](O)[C@@H]1O | 9 mg/L
C[C@@H](O)C1=C[C@@H](n2cnc3c(N)ncnc32)[C@H](O)[C@@H]1O | > 200 mg/L
C[C@H](O)C1=C[C@@H](n2cnc3c(N)ncnc32)[C@H](O)[C@@H]1O | 132 mg/L

The value of IC50 measured for the compound Nc1ncnc2c1ncn2[C@@H]1C=C(CCl)[C@@H](O)[C@H]1O turned out to be 9 mg/L

====

# Tested on: HeLa
# test details: Inhibitory effect on replication of RNA virus RSV in HeLa cell line
# Format: functional, cell-based
# assay context: Homo sapiens
recorded metric: IC50 (µg/mL)
Numeric only. Scale: µg/mL

Please review the following examples before continuing.
Nc1ncnc2c1ncn2[C@@H]1C=C(CF)[C@@H](O)[C@H]1O | 10
COCC1=C[C@@H](n2cnc3c(N)ncnc32)[C@H](O)[C@@H]1O | 100
C=CC1=C[C@@H](n2cnc3c(N)ncnc32)[C@H](O)[C@@H]1O | 100
Nc1ncnc2c1ncn2[C@@H]1C=C(CCl)[C@@H](O)[C@H]1O | 0.8
CC1=C[C@@H](n2cnc3c(N)ncnc32)[C@H](O)[C@@H]1O | 10

Now take the following compound into account.
Result for Nc1ncnc2c1ncn2[C@@H]1C=C(CO)[C@@H](O)[C@H]1O [NEOPLANOCIN A] , tested on HeLa, IC50: 0.2

====

# Tested on: HEL
# test details: Inhibitory effect on replication of DNA virus CMV (Davis) on HEL cell line.
# Format: functional, cell-based
# assay context: Homo sapiens
recorded metric: IC50 (mg/L)
Numeric only. Scale: mg/L

Please review the following examples before continuing.
C=CC1=C[C@@H](n2cnc3c(N)ncnc32)[C@H](O)[C@@H]1O | 17
Nc1ncnc2c1ncn2[C@@H]1C=C(CO)[C@@H](O)[C@H]1O | 0.2
C[C@H](O)C1=C[C@@H](n2cnc3c(N)ncnc32)[C@H](O)[C@@H]1O | 9
CC1=C[C@@H](n2cnc3c(N)ncnc32)[C@H](O)[C@@H]1O | 1.5

Now take the following compound into account.
Result for COCC1=C[C@@H](n2cnc3c(N)ncnc32)[C@H](O)[C@@H]1O , tested on HEL, IC50: 25
